target: 5-HT1A receptor (Rattus norvegicus); construct: Hippocampal homogenates (15 μg/mL) were added to each tube as the 5-HT1A receptor source; from tissue; host or cells: rat hippocampus (male Sprague-Dawley), membrane homogenate; assay: Antagonist activity for the 5-HT1A receptor, [35S]GTPγS assay in hippocampal homogenates; assay type: biochemical; details: antagonistic activity, 8-OH-DPAT 1.4 × 10^−7 M, mean ± SEM
Observed property: EC50
Be sure to follow the number with its unit.

These recorded examples may help you get a feel for the data.
molecular_string=CC(=O)c1c(C)cc2oc(=O)cc(C)c2c1OCCCCCN1CCN(c2ccccc2Br)CC1 observed_property=EC50 experimental_value="689 nM"
molecular_string=CC(=O)c1c(C)cc2oc(=O)cc(C)c2c1OCCCCCN1CCN(c2cccc(F)c2)CC1 observed_property=EC50 experimental_value="702 nM"
molecular_string=CC(=O)c1c(OCCCCCN2CCN(c3ccccc3C#N)CC2)ccc2c(C)cc(=O)oc12 observed_property=EC50 experimental_value="13900 nM"

Could you tell me which EC50 is on file for Cc1cc(OCCCCCN2CCN(c3ccccc3Br)CC2)c2c(C)cc(=O)oc2c1 ?
20900 nM

Entry COc1ccccc1N1CCN(CCOc2c(C(C)=O)c(C)cc3oc(=O)cc(C)c23)CC1 has what EC50?
91.6 nM

Reported EC50, molecule COc1cccc(N2CCN(CCOc3c(C(C)=O)c(C)cc4oc(=O)cc(C)c34)CC2)c1 : ____
5010 nM

###

Molecular target: 5-HT1A receptor (Rattus norvegicus, UniProt P19327)
Sequence (P19327 1-422): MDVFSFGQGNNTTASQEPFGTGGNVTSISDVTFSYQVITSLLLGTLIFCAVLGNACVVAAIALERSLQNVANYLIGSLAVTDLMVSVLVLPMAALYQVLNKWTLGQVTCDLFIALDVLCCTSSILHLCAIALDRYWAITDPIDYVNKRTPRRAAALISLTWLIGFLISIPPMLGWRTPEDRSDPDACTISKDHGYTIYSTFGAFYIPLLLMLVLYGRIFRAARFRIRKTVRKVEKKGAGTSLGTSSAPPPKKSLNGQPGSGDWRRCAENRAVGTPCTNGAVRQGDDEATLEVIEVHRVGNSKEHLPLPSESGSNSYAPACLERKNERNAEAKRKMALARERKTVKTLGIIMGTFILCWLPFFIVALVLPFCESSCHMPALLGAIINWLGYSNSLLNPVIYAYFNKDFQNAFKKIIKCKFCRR
Observed property: IC50 (µM)
Numeric only. Scale: µM

Known IC50 results, listed for orientation:
compound="CC(=O)c1c(C)cc2oc(=O)cc(C)c2c1OCCN1CCN(c2ccccc2Br)CC1 [Compound 4f]" measurement_units=µM experimental_value=8.32
compound="CC(=O)c1c(C)cc2oc(=O)cc(C)c2c1OCCCCCN1CCN(c2ccccc2F)CC1 [Compound 3b]" measurement_units=µM experimental_value=20
compound="CC(=O)c1c(OCCCCCN2CCN(c3cccc(F)c3)CC2)ccc2c(C)cc(=O)oc12 [Compound 5e]" measurement_units=µM experimental_value=31.6
compound="Cc1cc(C)cc(N2CCN(CCCCCOc3cc(C)cc4oc(=O)cc(C)c34)CC2)c1 [Compound 1h]" measurement_units=µM experimental_value=200
compound="CC(=O)c1c(OCCCCCN2CCN(c3ccccc3C#N)CC2)ccc2c(C)cc(=O)oc12 [Compound 5j]" measurement_units=µM experimental_value=15.8

Field request: IC50 | item: CC(=O)c1c(OCCN2CCN(c3cc(C)cc(C)c3)CC2)ccc2c(C)cc(=O)oc12 [Compound 6h]
50.1

Look at this compound and give its reported IC50. COc1ccccc1N1CCN(CCOc2c(C(C)=O)c(C)cc3oc(=O)cc(C)c23)CC1 [Compound 4a]
0.1

Requested read-out: IC50. Entry: Cc1cc(OCCCCCN2CCN(c3ccccc3C#N)CC2)c2c(C)cc(=O)oc2c1 [Compound 1j]
79.4

###

Here the recorded EC50 is given for each entry.
molecular target: 5-HT1A receptor (Rattus norvegicus); construct: Hippocampal homogenates (15 μg/mL) were added to each tube as the 5-HT1A receptor source; from tissue; host or cells: rat hippocampus (male Sprague-Dawley), membrane homogenate; experiment: Antagonist activity for the 5-HT1A receptor, [35S]GTPγS assay in hippocampal homogenates; type: biochemical; settings: antagonistic activity, 8-OH-DPAT 1.4 × 10^−7 M, mean ± SEM
Quick note: give the figure in nM, leave out the unit.

Solved entries (count: 5):
compound="CC(=O)c1c(OCCN2CCN(c3cc(C)cc(C)c3)CC2)ccc2c(C)cc(=O)oc12 [Compound 6h]" system_under_test="5-HT1A receptor (Rattus norvegicus)" measurement_units=nM experimental_value=47800
compound="CC(=O)c1c(OCCN2CCN(c3ccccc3F)CC2)ccc2c(C)cc(=O)oc12 [Compound 6b]" system_under_test="5-HT1A receptor (Rattus norvegicus)" measurement_units=nM experimental_value=45300
compound="CC(=O)c1c(OCCN2CCN(c3ccccc3C#N)CC2)ccc2c(C)cc(=O)oc12 [Compound 6j]" system_under_test="5-HT1A receptor (Rattus norvegicus)" measurement_units=nM experimental_value=7800
compound="CC(=O)c1c(OCCCCCN2CCN(c3ccccc3Br)CC2)ccc2c(C)cc(=O)oc12 [Compound 5f]" system_under_test="5-HT1A receptor (Rattus norvegicus)" measurement_units=nM experimental_value=27400
compound="CC(=O)c1c(C)cc2oc(=O)cc(C)c2c1OCCN1CCN(c2ccccc2F)CC1 [Compound 4b]" system_under_test="5-HT1A receptor (Rattus norvegicus)" measurement_units=nM experimental_value=5000

Return EC50 measured with 5-HT1A receptor (Rattus norvegicus) given this compound: COc1ccccc1N1CCN(CCOc2cc(C)cc3oc(=O)cc(C)c23)CC1 [Compound 2a]
1880

Find EC50 (5-HT1A receptor (Rattus norvegicus)) for the entry CC(=O)c1c(OCCN2CCN(c3cccc(Cl)c3Cl)CC2)ccc2c(C)cc(=O)oc12 [Compound 6i]
204000

// fetch 5-HT1A receptor (Rattus norvegicus) EC50 for CC(=O)c1c(C)cc2oc(=O)cc(C)c2c1OCCN1CCN(c2cccc(Br)c2)CC1 [Compound 4g]
11100

Requested read-out EC50, target or system 5-HT1A receptor (Rattus norvegicus), entry CC(=O)c1c(C)cc2oc(=O)cc(C)c2c1OCCN1CCN(c2cc(C)cc(C)c2)CC1 [Compound 4h]
26800

Form field - read-out: EC50; system: 5-HT1A receptor (Rattus norvegicus); submitted item: CC(=O)c1c(C)cc2oc(=O)cc(C)c2c1OCCN1CCN(c2ccccc2Br)CC1 [Compound 4f]
8320

Please provide the recorded EC50 for CC(=O)c1c(OCCCCCN2CCN(c3ccccc3F)CC2)ccc2c(C)cc(=O)oc12 [Compound 5b] , tested on 5-HT1A receptor (Rattus norvegicus).
82

Record Cc1cc(OCCCCCN2CCN(c3cccc(Cl)c3Cl)CC2)c2c(C)cc(=O)oc2c1 [Compound 1i] : what is its EC50 with 5-HT1A receptor (Rattus norvegicus)?
13700

Enter reported EC50 observed with 5-HT1A receptor (Rattus norvegicus) for CC(=O)c1c(C)cc2oc(=O)cc(C)c2c1OCCCCCN1CCN(c2cc(C)cc(C)c2)CC1 [Compound 3h]
1240

Record COc1ccccc1N1CCN(CCCCCOc2ccc3c(C)cc(=O)oc3c2C(C)=O)CC1 [Compound 5a] : what is its EC50 with 5-HT1A receptor (Rattus norvegicus)?
30.5

Tell me reported EC50 for CC(=O)c1c(C)cc2oc(=O)cc(C)c2c1OCCCCCN1CCN(c2cccc(Br)c2)CC1 [Compound 3g] , tested with 5-HT1A receptor (Rattus norvegicus).
1280

// map COc1cccc(N2CCN(CCOc3cc(C)cc4oc(=O)cc(C)c34)CC2)c1 [Compound 2c] to recorded EC50 (system: 5-HT1A receptor (Rattus norvegicus))
19100

Form entry - test system: 5-HT1A receptor (Rattus norvegicus); read-out: EC50; compound: COc1cccc(N2CCN(CCCCCOc3c(C(C)=O)c(C)cc4oc(=O)cc(C)c34)CC2)c1 [Compound 3c]
1550

###

Target: 5-HT1A receptor (Rattus norvegicus, UniProt P19327)
Sequence (P19327 1-422): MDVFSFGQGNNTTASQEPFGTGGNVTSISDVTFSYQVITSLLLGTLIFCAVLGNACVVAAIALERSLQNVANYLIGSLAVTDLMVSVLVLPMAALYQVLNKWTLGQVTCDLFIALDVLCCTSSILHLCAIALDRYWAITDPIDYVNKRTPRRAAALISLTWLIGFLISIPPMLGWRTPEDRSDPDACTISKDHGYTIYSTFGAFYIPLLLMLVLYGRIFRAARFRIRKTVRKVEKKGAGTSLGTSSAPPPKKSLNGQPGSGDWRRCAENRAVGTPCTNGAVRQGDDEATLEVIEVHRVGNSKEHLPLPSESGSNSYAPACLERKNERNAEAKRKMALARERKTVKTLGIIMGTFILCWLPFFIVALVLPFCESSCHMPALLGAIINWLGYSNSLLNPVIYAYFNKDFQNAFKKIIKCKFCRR
Observed property: IC50 (µM)
API: value field is a number in µM; no unit string.

Some molecules with known IC50 results, for comparison:
molecular_string=COc1cccc(N2CCN(CCCCCOc3ccc4c(C)cc(=O)oc4c3C(C)=O)CC2)c1 measurement_units=µM experimental_value=25.1
molecular_string=COc1cccc(N2CCN(CCOc3ccc4c(C)cc(=O)oc4c3C(C)=O)CC2)c1 measurement_units=µM experimental_value=50.1
molecular_string=COc1ccccc1N1CCN(CCCCCOc2ccc3c(C)cc(=O)oc3c2C(C)=O)CC1 measurement_units=µM experimental_value=0.0316

Continue with the next molecule.
// returns reported IC50 for input COc1cccc(N2CCN(CCOc3c(C(C)=O)c(C)cc4oc(=O)cc(C)c34)CC2)c1
5.01
